Can you tell me OD450 at 0.001 nM for the items I'm about to list?
- target or test system: T1, human MSLN-R3-his protein (human, UniProt Q13421 487-598)
- T1 construct: Region 3 of human MSLN, His-tagged; also called human MSLN-R3 protein; hMSLN-R3-his; not shown: His tag
- T1 sequence (Q13421 495-606): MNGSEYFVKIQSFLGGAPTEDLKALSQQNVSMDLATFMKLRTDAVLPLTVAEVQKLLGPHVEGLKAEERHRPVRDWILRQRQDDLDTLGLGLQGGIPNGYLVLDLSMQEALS
- measurement notes: ELISA, coated MSLN-R3
State the answer as a number, implicitly in OD450.

Query S009-F1.59.1 (antibody, human IgG1, kappa, V domains shown, Human-murine chimeric antibody, human IgG1/kappa constant regions) VH: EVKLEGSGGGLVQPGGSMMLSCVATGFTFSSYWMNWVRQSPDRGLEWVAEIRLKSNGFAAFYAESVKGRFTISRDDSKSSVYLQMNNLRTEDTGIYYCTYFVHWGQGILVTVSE VL: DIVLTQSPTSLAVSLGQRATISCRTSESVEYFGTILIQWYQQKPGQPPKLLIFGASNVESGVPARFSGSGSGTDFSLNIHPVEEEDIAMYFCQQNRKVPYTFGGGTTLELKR yields OD450 at 0.001 nM of 0.06

Query S009-F1.35.24 (antibody, human IgG1, kappa, V domains shown, Human-murine chimeric antibody, human IgG1/kappa constant regions) VH: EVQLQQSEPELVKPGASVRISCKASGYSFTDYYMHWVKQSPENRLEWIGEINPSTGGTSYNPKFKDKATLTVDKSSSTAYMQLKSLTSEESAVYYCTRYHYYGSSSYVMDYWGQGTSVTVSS VL: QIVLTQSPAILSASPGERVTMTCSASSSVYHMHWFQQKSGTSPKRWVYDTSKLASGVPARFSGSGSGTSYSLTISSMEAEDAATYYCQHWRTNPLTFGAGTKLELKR yields OD450 at 0.001 nM of 0.05

Query S009-F1.57.1 (antibody, human IgG1, kappa, V domains shown, Human-murine chimeric antibody, human IgG1/kappa constant regions) VH: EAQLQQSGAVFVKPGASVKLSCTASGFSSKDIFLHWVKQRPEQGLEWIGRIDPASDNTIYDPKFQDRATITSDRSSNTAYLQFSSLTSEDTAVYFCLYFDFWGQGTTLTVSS VL: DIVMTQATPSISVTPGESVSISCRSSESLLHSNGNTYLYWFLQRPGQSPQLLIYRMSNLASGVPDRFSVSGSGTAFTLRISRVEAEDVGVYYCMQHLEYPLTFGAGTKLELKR yields OD450 at 0.001 nM of 0.05
